# experimental-system: UniProt Q13547
# assay: Fluorogenic HDAC assay kit (BPS Bioscience), HDAC1 inhibition
# Assay type: biochemical
# measurement-setup: purified/recombinant enzyme; inhibitor range 10,000-0.1 nM
pIC50: −log10 of the molar value.
reported-property: pIC50

Solved entries (count: 5):
O=C(CCCCCCNC(=O)c1ccc(C(F)(C(=O)Nc2cccc3cccnc23)C(=O)Nc2cccc3cccnc23)cc1)NO | 5.61
O=C(CCCCCCC(=O)Nc1ccc(C(C(=O)Nc2cccc3cccnc23)C(=O)Nc2cccc3cccnc23)cc1)NO | 6.62
CC(C)(C)c1ccc(CNC(=O)CCCCCCCC(=O)NO)cc1 | 6.17
O=C(CCCCCC(=O)Nc1ccc(C(C(=O)Nc2cccc3cccnc23)C(=O)Nc2cccc3cccnc23)cc1)NO | 5.95
CC(C)(C)c1ccc(NC(=O)C(CCCCCC(=O)NO)C(=O)Nc2ccc(C(C)(C)C)cc2)cc1 | 6.97

(a) O=C(CCCCCCC(=O)Nc1ccc(C(C(=O)Nc2ccccc2)C(=O)Nc2ccccc2)cc1)NO
(b) O=C(CCCCCCNC(=O)c1ccc(C(C(=O)Nc2cccc3cccnc23)C(=O)Nc2cccc3cccnc23)cc1)NO
Lookup: Of a versus b , which is the one with smaller reported pIC50? Identify your selection by its label.
Found: b
(b: 5.98, a: 6.89)

====

# experimental-system: HDAC1 (Homo sapiens, UniProt Q13547)
# Sequence (Q13547 whole entry): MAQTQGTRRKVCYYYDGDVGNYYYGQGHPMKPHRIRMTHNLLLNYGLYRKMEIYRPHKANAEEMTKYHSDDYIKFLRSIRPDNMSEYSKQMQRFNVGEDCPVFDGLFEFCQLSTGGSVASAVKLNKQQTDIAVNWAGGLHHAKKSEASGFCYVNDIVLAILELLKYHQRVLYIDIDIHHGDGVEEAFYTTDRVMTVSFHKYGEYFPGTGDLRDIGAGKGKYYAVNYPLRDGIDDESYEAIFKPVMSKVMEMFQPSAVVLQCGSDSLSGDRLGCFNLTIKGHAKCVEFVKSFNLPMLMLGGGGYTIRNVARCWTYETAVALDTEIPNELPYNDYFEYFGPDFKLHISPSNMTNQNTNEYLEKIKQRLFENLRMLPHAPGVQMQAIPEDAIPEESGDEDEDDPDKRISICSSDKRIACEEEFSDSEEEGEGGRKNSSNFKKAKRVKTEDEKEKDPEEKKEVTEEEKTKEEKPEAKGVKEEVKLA
# assay: Fluorogenic HDAC assay kit (BPS Bioscience), HDAC1 inhibition
# measurement-setup: purified/recombinant enzyme; inhibitor range 10,000-0.1 nM
# Protocol: Various compounds were tested in in vitro enzyme assays for their activity in inhibiting HDAC6 and HDAC1. The assays used was a fluorogenic HDAC assay kit (BPS Bioscience, San Diego, Calif.). […] The deacetylation sensitizes the substrate so subsequent treatment with a lysine developer produces a fluorophore that can then be measured using a fluorescence reader. […]
reported-property: IC50 (µM)

CC(C)(C)OC(=O)Nc1ccc(-c2cc(C(=O)NCCCCCCC(=O)NO)no2)cc1 [Kozikowski compound, reference compound] | 0.0384

(I) CC(C)(C)OC(=O)Nc1ccc(-c2csc(C(=O)NCCCCCCC(=O)NO)c2)cc1 [Compound 79]
(II) O=C(CCCCCCCC(=O)Nc1ccc(C(C(=O)Nc2cccc3cccnc23)C(=O)Nc2cccc3cccnc23)cc1)NO [Compound 28]
Lookup: Would you let me know which has the greater IC50 value, I or II ? Select an item and report its label.
Found: II
